Each recorded value in this set is attributed to ChEMBL document CHEMBL1156637.

Assign IC50 to each entry below.
Tested on: Leishmania major
Assay: Antileishmanial activity against Leishmania major
Type: functional, organism-based

Examples with answers:
>>> observed("C[C@@H]([C@H]1CC=C2[C@@H]3CCC4=C[C@@H](N(C)C)CC[C@]4(C)[C@H]3CC[C@@]21C)N(C)C [HOOKERIANAMIDE K]")
"6.8 µM"
>>> observed("C/C=C(\\C)C(=O)NC1=CC[C@@]2(C)C(=CC[C@H]3[C@@H]4CC[C@H]([C@H](C)NC)[C@@]4(C)CC[C@@H]32)C1=O")
"21.3 µM"
>>> observed("CC(C)=CC(=O)N[C@H]1CC[C@@]2(C)[C@@H](CC[C@@H]3[C@@H]2CC[C@]2(C)C([C@H](C)N(C)C)=CC[C@@H]32)[C@H]1O [HOOKERIANAMIDE J]")
"11.3 µM"

Record IC50 per entry; entries follow.
1. CN[C@@H](C)[C@H]1CC[C@H]2[C@@H]3CC[C@H]4[C@@H](OC(C)=O)[C@@H](NC(=O)C=C(C)C)CC[C@]4(C)[C@H]3CC[C@]12C [VAGENINE A]
2. C/C=C(\C)C(=O)N[C@H]1CC[C@]2(C)[C@H]3CC[C@]4(C)[C@@H]([C@H](C)NC)CC[C@H]4[C@@H]3CC[C@H]2[C@H]1OC(C)=O [SARCOVAGINE C]

A:
1: 3.3 µM; 2: 1.5 µM

* * *

Assign MIC to each entry below.
Tested on: Pseudomonas
Test: Antibacterial activity against Pseudomonas pallida by agar well diffusion method
Format: functional
One number for each entry, in µM.

Examples with answers:
>>> observed("CN[C@@H](C)[C@H]1CC[C@H]2[C@@H]3CC[C@H]4C[C@@H](N(C)C(=O)c5ccccc5)CC[C@]4(C)[C@H]3CC[C@]12C [HOOKERIANAMIDE I]")
69.4
>>> observed("C/C=C(\\C)C(=O)NC1=CC[C@@]2(C)C(=CC[C@H]3[C@@H]4CC[C@H]([C@H](C)NC)[C@@]4(C)CC[C@@H]32)C1=O")
35.6
>>> observed("CN[C@@H](C)[C@H]1CC[C@H]2[C@@H]3CC[C@H]4[C@@H](OC(C)=O)[C@@H](NC(=O)C=C(C)C)CC[C@]4(C)[C@H]3CC[C@]12C")
64.3

We next turn to a different compound, shown below.
Q: Give MIC for the following compound: CC(C)=CC(=O)N[C@H]1CC[C@@]2(C)[C@@H](CC[C@@H]3[C@@H]2CC[C@]2(C)C([C@H](C)N(C)C)=CC[C@@H]32)[C@H]1O [HOOKERIANAMIDE J]
A: 70.7
